target: T1, human IL-6 (mature hIL-6) (human, UniProt P05231 30-212); experiment: SPR (format not stated)
T1 construct: also called the antigen
T1 sequence (P05231 30-212): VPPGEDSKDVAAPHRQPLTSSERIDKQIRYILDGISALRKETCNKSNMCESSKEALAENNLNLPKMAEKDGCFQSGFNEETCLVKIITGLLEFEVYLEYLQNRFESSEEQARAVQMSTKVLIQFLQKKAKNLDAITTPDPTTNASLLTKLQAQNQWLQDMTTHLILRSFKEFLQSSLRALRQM
Record form. Attribute: Kd. Fill in for each entry.
Numbers only, in pM.

binder: Polypeptide_15 (VHH, VHH_2.15 with C-terminal His tag extension E1; also called [VHH_2.15]-E1) VHH: QVQLQESGGGLVQAGGSLRLSCTASGGTFSEYAMAWFRQAPGKEREFVTDIGESGGTWYADSVKGRFTISRDNAKNTVYLQMNSLRPEDTAVYYCAADSYGVGGGAERYYDSWGQGTQVTVSS
Kd, pM: 1

Input: // returns reported Kd for input Polypeptide_6 (VHH, VHH_2.6 with C-terminal His tag extension E1; also called [VHH_2.6]-E1) VHH: QVQLQESGGGLVQAGGSLRLSCTTSGRTFSDYAMAWFRQAPGKDREFVADIGTNSENTWYAESVKGRFTISRDNTKNTIYLQMNSLKPEDTAVYYCAADSYGVGGGKQEYYDSWGQGAQVTVSS
Output: 1520
